system: canine CD3 on canine T cells (canine PBMC) (canine, UniProt P27597 22-202)
Sequence (P27597 22-202 limits assumed, chain 1 of 3): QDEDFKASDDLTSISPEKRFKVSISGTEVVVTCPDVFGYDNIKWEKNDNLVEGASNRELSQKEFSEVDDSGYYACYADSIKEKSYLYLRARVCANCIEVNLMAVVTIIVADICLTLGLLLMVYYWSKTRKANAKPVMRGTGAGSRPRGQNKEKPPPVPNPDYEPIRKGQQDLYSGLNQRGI
Sequence (chain, as listed by the source limits assumed, chain 2 of 3): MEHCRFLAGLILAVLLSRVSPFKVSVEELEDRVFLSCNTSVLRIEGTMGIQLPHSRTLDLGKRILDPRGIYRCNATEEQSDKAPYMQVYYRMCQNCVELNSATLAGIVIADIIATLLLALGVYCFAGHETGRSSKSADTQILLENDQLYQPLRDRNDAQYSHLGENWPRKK
Sequence (chain, as listed by the source limits assumed, chain 3 of 3): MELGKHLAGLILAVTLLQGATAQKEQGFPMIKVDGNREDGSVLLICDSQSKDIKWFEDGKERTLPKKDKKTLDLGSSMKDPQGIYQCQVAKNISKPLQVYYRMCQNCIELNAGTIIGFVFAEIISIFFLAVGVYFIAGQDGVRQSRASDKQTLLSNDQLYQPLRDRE
experiment-description: cell-based or functional assay
Param threshold (60 pg/mL) applies to IFNy Concentration pg/ml, Day 6, IS; output MET when value >= threshold, NOT MET when value < threshold.

Determine whether this binder has IFNy Concentration pg/ml, Day 6, IS no lower than 60 pg/mL: PMX158 (monospecific anti-canine CD3, canine IgG-B effector function deficient Fc) (antibody, V domains shown) VH: ELTLQESGPGLVKPSQTLSLTCVVSGGSVTRSYYWNWIRQRPGRGLEWMGYWTGTTNYNPAFQGRISITADTAKNQCSLQLSSMTTEDTAVYYCAREGGKLLGAFGHWGQGTLVTVSS VL: SYVLTQLPSKNVTLKQPAHITCGGDKIGSKSVHWYQQKLGQAPVLIIYYDSSRLTGIPERFSGANSGNTATLTISGALAEDEADYYCQVWDSSAKASVFGGGTHLTVL
NOT MET

Determine whether this binder has IFNy Concentration pg/ml, Day 6, IS no lower than 60 pg/mL: PMX198 (monospecific anti-canine CD3, canine IgG-B effector function deficient Fc) (antibody, V domains shown) VH: EFTLQESGPGLVKPSQTLSLTCIVSGGSVTSSYYWNWIRQRPGRGLEWMGYWTGSTNYNPAFQGRISITPDTAKNQFSLQLSSMTTEDTAVYYCAREGGSSLQAFGNWGQGTLVTVSS VL: SYVLTQLPSKNVTLKQPAHITCGGDNIGRKSVHWYQQKLGQAPILIIYYDSSRPTGIPERFSGANSGNTATLTISGALAEDEADYYCQVWDSSAKASVFGGGTHLTVL
MET

Determine whether this binder has IFNy Concentration pg/ml, Day 6, IS no lower than 60 pg/mL: PMX178 (monospecific anti-canine CD3, canine IgG-B effector function deficient Fc) (antibody, V domains shown) VH: ELALQESGPGLVRPSQTLSLTCVVSGGSVTRSYYWNWIRQRPGRGLEWMGYWTGTTIYNPAFQGRISITVDTAKNQFSLHLISMTTEDTAVYYCGREGGSSLGAIAYWGQGTRVTVSS VL: SYVLTQLPSKNVTLKQPAHITCGGDNIGRKSVHWYQQKLGQAPVLIIYYDSSRPTGIPERFSGANSGNTATLTISGALAEDEADYYCQVWDSSAKAAVFGGGTHLTVL
NOT MET

Determine whether this binder has IFNy Concentration pg/ml, Day 6, IS no lower than 60 pg/mL: PMX197 (monospecific anti-canine CD3, canine IgG-B effector function deficient Fc) (antibody, V domains shown) VH: ELTLQESGPGLVKPSQTLSLTCLVSGGSVTRSYYWNWIRQRPGRGLEWMGYWTGSTNYNPAFQGRISIIPDTAKNQFSLQLTSMTTDDTAIYFCAREGGRTLGAFADWGQGTLVTVSS VL: SYVLTQLPSKNVTLKQPAHITCGGDKIGSKNVHWYQQKLGQAPVLIIYYDSSRPTGIPERFSGANSGNTATLTISGALAEDEADYYCQVWDSSAKASVFGGGTHLTVL
NOT MET

Data origin: patent US20240209086A1
